# Target system: Hepatocyte nuclear factor 6 (Homo sapiens)
# Method summary: ATG_HNF6_CIS: Attagene CIS-FACTORIAL HepG2 Assay for human Hepatocyte Nuclear Factor 6 (HNF6) (AID 2282952)
# Test context: HepG2 Attagene cis-factorial HNF6 reporter transcription; actives raise or lower the signal
Active and inactive are the calls of the source. How the source made its calls: active means hit-call score of the fitted dose curve at least 0.9, where 1 is the maximum; inactive means score below 0.9.
Please answer using one outcome listed in t = active, f = inactive

Study these solved cases before continuing.
Molecule | Group
O=P(O)(O)CCC(F)(F)C(F)(F)C(F)(F)C(F)(F)C(F)(F)C(F)(F)F | f
O=S(=O)(O)c1ccccc1 | f
C[C@]12CC[C@@H]3c4ccc(O)cc4CC[C@H]3[C@@H]1CC[C@@H]2OC(=O)CCC1CCCC1 | t
OCCN1CN(CCO)CN(CCO)C1 | f
C/C=C/C(=O)C1=C(C)CCCC1(C)C | t

[Q] Which outcome was entered for the molecule O=C1OC(=O)c2cc(-c3ccc4c(c3)C(=O)OC4=O)ccc21 in this test?
[A] f

[Q] Also check CCCCc1ccc2ccccc2c1S(=O)(=O)O
[A] f

[Q] Also check O=C(c1cc(O)c(O)c(O)c1)c1ccc(O)c(O)c1O
[A] f

[Q] Also check Oc1cc2ccccc2cc1O
[A] f

[Q] Also check CCCCCCCCC(C)=O
[A] f

[Q] Also check CC1CNCC(C)O1 (stereo not given)
[A] f

[Q] Also check O=C(F)C(F)(F)C(F)(F)C(F)(F)C(=O)F
[A] f

[Q] Also check C[C@]12CC[C@@H]3c4ccc(O)cc4CC[C@H]3[C@@H]1C[C@@H](O)[C@@H]2O
[A] f

[Q] Also check Oc1c(Cl)cc(Cl)cc1Sc1cc(Cl)cc(Cl)c1O
[A] f

[Q] Also check CCCCCCCCCCCC[N+](C)(C)CCCCCCCCCCCC
[A] f

[Q] Also check C=CC(=O)OCCC(F)(F)C(F)(F)C(F)(F)C(F)(F)C(F)(F)C(F)(F)C(F)(F)C(F)(F)F
[A] f

[Q] Also check COC(=O)C(F)(F)C(F)(F)C(F)(F)F
[A] f

[Q] Also check C=CC(=O)OCCC(F)(F)C(F)(F)C(F)(F)C(F)(F)C(F)(F)C(F)(F)F
[A] f

[Q] Also check Cc1ccc(C(=O)c2ccccc2)cc1
[A] f

[Q] Also check Cc1cncc(C)c1
[A] f

[Q] Also check CCO[Si](C)(C)OCC
[A] f

[Q] Also check O=C1C=CC(=O)N1c1cccc(N2C(=O)C=CC2=O)c1
[A] f

[Q] Also check O=C(Nc1ccc(Cl)c(Cl)c1)c1cc(Cl)cc(Cl)c1O
[A] f

[Q] Also check CCCCCCCC(OC)OC
[A] f

[Q] Also check Cc1ccc(C)c(S(=O)(=O)O)c1
[A] f

[Q] Also check CC(=O)CC(C)C
[A] f

[Q] Also check CCO[Si](CCC1CCC2OC2C1)(OCC)OCC (stereo not given)
[A] f

[Q] Also check C=CC(C)(CCC=C(C)C)OC(C)=O (stereo not given)
[A] f

----------
# Method summary: BSK_3C_SRB: Viability Assessment in the BioMAP Diversity Plus: 3C Assay (AID 2283023);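 further: cells read 24 h after compound dosing; fitted both ways against DMSO so a hit may be signal rise or drop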
# Test context: primary human endothelial cells (HUVEC)
Activity calls are given as the source filed them. The calls were made as follows: active = hit-call score of the fitted dose curve at least 0.9, where 1 is the maximum; inactive = score below 0.9.
Please answer using one outcome listed in class 1 for active, class 0 for inactive

Study these solved cases before continuing.
Molecule | Group
CCCCC(CC)C(=O)OCCOCCOCCOCCOC(=O)C(CC)CCCC (configuration not stated) | class 0
O=C(O)CCC(F)(F)C(F)(F)C(F)(F)C(F)(F)C(F)(F)F | class 0
C[C@]12CC[C@@H]3c4ccc(O)cc4CC[C@H]3[C@@H]1C[C@@H](O)[C@@H]2O | class 0
Oc1cc2ccccc2cc1O | class 0
NC(=NCCCCCCN=C(N)/N=C(\N)Nc1ccc(Cl)cc1)/N=C(\N)Nc1ccc(Cl)cc1 | class 1
CC1=NN(c2ccccc2)C(=O)C1 | class 0

[Q] Which outcome was entered for the molecule O=C(O)CCC(F)(F)C(F)(F)C(F)(F)C(F)(F)C(F)(F)C(F)(F)F in this test?
[A] class 0

[Q] Also check C=COC(=O)C(C)(C)CCCCCC
[A] class 1

[Q] Also check O=P(O)(O)CCC(F)(F)C(F)(F)C(F)(F)C(F)(F)C(F)(F)C(F)(F)F
[A] class 0

[Q] Also check OCCN1CN(CCO)CN(CCO)C1
[A] class 1

[Q] Also check CCCCC=O
[A] class 0

[Q] Also check CC[N+](CC)(CC)Cc1ccccc1
[A] class 0

----------
# Method summary: ATG_CMV_CIS: Attagene CIS-FACTORIAL HepG2 Assay for human CMV (Internal Marker) (AID 2282928);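 further: endpoint acts as a background internal control marker rather than a target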
# Test context: HepG2 CMV promoter reporter, transcription factor profiling; actives raise or lower the signal
Calls of active or inactive are those of the source. The calls were made as follows: active = hit-call score of the fitted dose curve at least 0.9, where 1 is the maximum; inactive = score below 0.9.
Please answer using one outcome listed in active, inactive

Compound | Group
O=C(c1ccccc1)c1ccccc1 | inactive

[Q] Which outcome was entered for the compound CCN(CCC#N)c1ccccc1 in this test?
[A] inactive

[Q] Also check FC(F)(F)C(F)(F)C(F)(F)Br
[A] inactive

[Q] Also check O=C(O)C(F)(F)OC(F)(F)C(F)(F)OC(F)(F)C(F)(F)OC(F)(F)C(F)(F)C(F)(F)C(F)(F)F
[A] inactive

[Q] Also check O=C(CCCN1CCC(O)(c2ccc(Cl)cc2)CC1)c1ccc(F)cc1
[A] active

----------
# Read-out: Phosphatase and tensin (PTEN), PTEN (gene 5728)
# Method summary: LTEA_HepaRG_PTEN: Life Technologies and Expression Analysis (LTEA) Assay for Phosphatase and tensin (PTEN) using HepaRG (AID 2283523)
# Test context: mRNA level, 48 h; actives raise or lower the signal
The source made the active and inactive calls. How the source made its calls: active means hit-call score of the fitted dose curve at least 0.9, where 1 is the maximum; inactive means score below 0.9.
Please answer using one outcome listed in Y for active, N for inactive

Compound | Group
CCC(C)c1ccccc1O (centres undefined) | N
CN(Cc1cnc2nc(N)nc(N)c2n1)c1ccc(C(=O)N[C@@H](CCC(=O)O)C(=O)O)cc1 | N

[Q] Which outcome was entered for the compound CC(=O)Nc1ccc(O)cc1 in this test?
[A] N

[Q] Also check CCCCC=O
[A] N

[Q] Also check O=C(c1ccccc1)c1ccccc1
[A] N

[Q] Also check N=C(N)c1ccc(OCCCCCOc2ccc(C(=N)N)cc2)cc1
[A] Y

[Q] Also check O=C(CCCN1CCC(O)(c2ccc(Cl)cc2)CC1)c1ccc(F)cc1
[A] N

[Q] Also check Cc1[nH]nc2c1N=C(c1ccccc1Cl)c1cc([N+](=O)[O-])ccc1N2
[A] N

[Q] Also check O=C1NS(=O)(=O)c2ccccc21
[A] N

----------
# Target system: Aryl hydrocarbon receptor (Homo sapiens) (UniProt P35869)
# Sequence (P35869 whole entry, looked up): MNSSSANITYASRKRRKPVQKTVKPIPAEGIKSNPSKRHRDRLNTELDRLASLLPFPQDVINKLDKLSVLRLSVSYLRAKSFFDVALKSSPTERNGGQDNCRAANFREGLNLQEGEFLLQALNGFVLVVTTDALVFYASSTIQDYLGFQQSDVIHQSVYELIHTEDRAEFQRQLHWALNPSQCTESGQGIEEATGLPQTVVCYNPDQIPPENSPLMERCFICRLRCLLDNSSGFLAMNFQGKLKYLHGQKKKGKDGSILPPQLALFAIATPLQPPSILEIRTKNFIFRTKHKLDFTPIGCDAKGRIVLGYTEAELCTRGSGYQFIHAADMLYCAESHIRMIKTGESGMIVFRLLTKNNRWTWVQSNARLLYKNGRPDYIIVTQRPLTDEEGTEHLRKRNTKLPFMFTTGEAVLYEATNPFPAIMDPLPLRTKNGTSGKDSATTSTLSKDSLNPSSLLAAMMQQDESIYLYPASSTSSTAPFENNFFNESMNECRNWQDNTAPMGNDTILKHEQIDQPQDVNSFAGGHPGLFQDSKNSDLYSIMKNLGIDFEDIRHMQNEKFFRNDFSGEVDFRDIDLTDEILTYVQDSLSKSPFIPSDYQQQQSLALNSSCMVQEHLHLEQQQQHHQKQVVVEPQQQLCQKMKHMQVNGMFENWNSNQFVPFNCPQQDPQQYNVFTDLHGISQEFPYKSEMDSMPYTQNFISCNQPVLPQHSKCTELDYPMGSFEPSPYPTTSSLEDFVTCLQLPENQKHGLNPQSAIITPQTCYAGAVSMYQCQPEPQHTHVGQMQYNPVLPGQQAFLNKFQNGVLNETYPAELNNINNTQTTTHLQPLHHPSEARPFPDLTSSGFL
# Method summary: ATG_Ahr_CIS: Attagene CIS-FACTORIAL HepG2 Assay for human Aryl Hydrocarbon Receptor (Ahr) (AID 2282930)
# Test context: HepG2 AhR cis-factorial reporter transcription; actives raise or lower the signal
# Protocol: ATG_CIS is a cell-based, multiplexed-readout assay that uses HepG2, a human liver cell line, with measurements taken at 24 hours after chemical dosing in a 24-well plate.ATG_Ahr_CIS is one of 52 assay component(s) measured or calculated from the ATG_CIS assay. […] This assay endpoint, ATG_Ahr_CIS, was analyzed with bidirectional fitting relative to DMSO as the negative control and baseline of activity. […]
The source made the active and inactive calls. How the source made its calls: active means hit-call score of the fitted dose curve at least 0.9, where 1 is the maximum; inactive means score below 0.9.
Please answer using one outcome listed in 1.0 = active, 0.0 = inactive

Study these solved cases before continuing.
Molecule | Group
CCC(C)c1ccccc1O (stereo not given) | 0.0
C=CC(C)(CCC=C(C)C)OC(C)=O (stereo not given) | 0.0
CCCCCCc1ccc(N)cc1 | 1.0

[Q] Which outcome was entered for the molecule CCCCCCOC(=O)c1ccc(O)cc1 in this test?
[A] 0.0

[Q] Also check O=C1c2ccccc2C(=O)c2c(O)c(O)cc(O)c21
[A] 1.0

[Q] Also check CCCCCCCCCCCC
[A] 0.0

[Q] Also check O=C(c1cc(O)c(O)c(O)c1)c1ccc(O)c(O)c1O
[A] 1.0

[Q] Also check Oc1cc2ccccc2cc1O
[A] 1.0

----------
# Target system: Paired box protein Pax-6 (Homo sapiens)
# Method summary: ATG_Pax6_CIS: Attagene CIS-FACTORIAL HepG2 Assay for human Paired Box 6 (PAX6) (AID 2282956)
# Test context: HepG2 CIS-FACTORIAL PAX6 reporter transcription, RNA readout; actives raise or lower the signal
Calls of active or inactive are those of the source. Rule for the calls: active = hit-call score of the fitted dose curve at least 0.9, where 1 is the maximum; inactive = score below 0.9.
Please answer using one outcome listed in Yes = active, No = inactive

Compound | Target system | Group
C[C@]12CC[C@@H]3c4ccc(O)cc4CC[C@H]3[C@@H]1C[C@@H](O)[C@@H]2O | Paired box protein Pax-6 (Homo sapiens) | No
CCC(C)c1ccccc1O (configuration not stated) | Paired box protein Pax-6 (Homo sapiens) | No

[Q] Which outcome was entered for the compound C=CCOCC(CO)(CO)CO in this test?
[A] No

[Q] Also check CCCCC(CC)C(=O)OCCOCCOCCOCCOC(=O)C(CC)CCCC (configuration not stated)
[A] No

[Q] Also check CCCCCCCCCCCC
[A] No

[Q] Also check CCCCCCCCCCCCCCCC(=O)OC
[A] No

[Q] Also check COC(=O)C(F)(F)C(F)(F)C(F)(F)C(F)(F)C(F)(F)F
[A] No

[Q] Also check Cc1[nH]nc2c1N=C(c1ccccc1Cl)c1cc([N+](=O)[O-])ccc1N2
[A] No

[Q] Also check CCO[Si](C)(C)OCC
[A] No

[Q] Also check C=CC(C)(CCC=C(C)C)OC(C)=O (configuration not stated)
[A] No
